For each of the molecules below, state its pIC50.
Biological target: UT-B (Mus musculus, UniProt Q8VHL0)
Sequence (Q8VHL0 whole entry): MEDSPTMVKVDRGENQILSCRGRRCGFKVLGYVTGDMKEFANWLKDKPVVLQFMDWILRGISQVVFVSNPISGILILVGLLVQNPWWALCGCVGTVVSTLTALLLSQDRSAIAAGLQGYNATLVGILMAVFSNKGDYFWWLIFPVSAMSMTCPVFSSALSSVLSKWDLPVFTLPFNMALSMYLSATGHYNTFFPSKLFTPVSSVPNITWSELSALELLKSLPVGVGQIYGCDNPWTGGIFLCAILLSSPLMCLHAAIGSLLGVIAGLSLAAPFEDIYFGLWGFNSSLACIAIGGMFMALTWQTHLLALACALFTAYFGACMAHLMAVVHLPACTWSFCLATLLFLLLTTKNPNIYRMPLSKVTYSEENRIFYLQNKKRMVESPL
Test: Erythrocyte lysis assay of UT-B inhibition
Format: cell-based
Set-up: Screening was performed using mouse erythrocytes, which strongly express UT-B; endogenous in cells; host or cells: erythrocytes in whole blood of wild-type CD1 mice
Conditions: Table 1, commercially available analogues, erythrocyte lysis assay; read-out: IC50
For clarity, pIC50 is expressed as the negative log10 of concentration in mol/L.

What value of pIC50 has been reported for the following molecule? "COc1cccc(CNc2nc3c(S(=O)(=O)c4ccc(C)cc4)nnn3c3ccsc23)c1"
5.56

Also check "CCN1CCN(c2nc3c(S(=O)(=O)c4ccc(C)cc4)nnn3c3ccsc23)CC1"
5.10

Also check "CCOCCCNc1nc2c(S(=O)(=O)c3cc(C)ccc3C)nnn2c2ccsc12"
5.01

Also check "CCc1ccc(S(=O)(=O)c2nnn3c2nc(NCc2cccc(OC)c2)c2sccc23)cc1"
6.54

Also check CCc1ccc(S(=O)(=O)c2nnn3c2nc(NCC2CCCO2)c2sccc23)cc1 (centres unmarked)
6.05

Also check "Cc1ccc(C)c(S(=O)(=O)c2nnn3c2nc(NCc2ccccc2)c2sccc23)c1"
5.78

Also check "Cc1ccc(S(=O)(=O)c2nnn3c2nc(NCCC(C)C)c2sccc23)cc1C"
6.07

Also check "COCCCNc1nc2c(S(=O)(=O)c3ccccc3)nnn2c2ccsc12"
5.36

Also check "Cc1ccc(S(=O)(=O)c2nnn3c2nc(NCc2ccc(F)cc2)c2sccc23)cc1"
6.13

Also check "Cc1ccc(S(=O)(=O)c2nnn3c2nc(N2CCOCC2)c2sccc23)cc1C"
5.77

Also check Cc1ccc(C)c(S(=O)(=O)c2nnn3c2nc(NC(C)c2ccccc2)c2sccc23)c1 (centres unmarked)
6.15

Also check "CCOCCCNc1nc2c(S(=O)(=O)c3ccc(C(C)C)cc3)nnn2c2ccsc12"
5.39

Also check CC(C)c1ccc(S(=O)(=O)c2nnn3c2nc(NCC2CCCO2)c2sccc23)cc1 (centres unmarked)
5.57

Also check "Cc1ccc(S(=O)(=O)c2nnn3c2nc(NCc2ccco2)c2sccc23)cc1"
5.67

Also check "COCCCNc1nc2c(S(=O)(=O)c3cc(C)ccc3C)nnn2c2ccsc12"
5.85

Also check "Cc1ccc(S(=O)(=O)c2nnn3c2nc(NCc2ccc(F)cc2)c2sccc23)cc1C"
5.25

Also check "O=S(=O)(c1ccc(Cl)cc1)c1nnn2c1nc(NCc1cccs1)c1sccc12"
6.67

* * *

For each of the compounds below, state its pIC50.
Biological target: UT-B (Mus musculus)
Assay: Erythrocyte lysis assay of UT-B inhibition
Assay type: cell-based
Design: Screening was performed using mouse erythrocytes, which strongly express UT-B; endogenous in cells; host or cells: erythrocytes in whole blood of wild-type CD1 mice
Settings: Table 1, commercially available analogues, erythrocyte lysis assay; read-out: IC50
For clarity, pIC50 is expressed as the negative log10 of concentration in mol/L.

What value of pIC50 has been reported for the following compound? "CCc1ccc(S(=O)(=O)c2nnn3c2nc(N2CCN(CC)CC2)c2sccc23)cc1"
4.92

Also check "Cc1ccc(S(=O)(=O)c2nnn3c2nc(NC(C)C)c2sccc23)cc1C"
5.66

Also check "COCCNc1nc2c(S(=O)(=O)c3ccc(C)cc3)nnn2c2ccsc12"
5.54

Also check "COCCNc1nc2c(S(=O)(=O)c3cc(C)ccc3C)nnn2c2ccsc12"
5.93

Also check "O=S(=O)(c1cccc(Cl)c1)c1nnn2c1nc(NCc1cccs1)c1sccc12"
5.68

Also check "Cc1ccc(S(=O)(=O)c2nnn3c2nc(N2CCCCC2)c2sccc23)cc1C"
5.75

Also check "COc1ccc(CNc2nc3c(S(=O)(=O)c4ccc(C)c(C)c4)nnn3c3ccsc23)cc1"
5.81

Also check "COCCNc1nc2c(S(=O)(=O)c3ccc(Br)cc3)nnn2c2ccsc12"
6.02

Also check "COCCCNc1nc2c(S(=O)(=O)c3ccc(Cl)cc3)nnn2c2ccsc12"
5.64

Also check "Cc1ccc(S(=O)(=O)c2nnn3c2nc(NCCCOC(C)C)c2sccc23)cc1"
4.93

Also check "COc1cccc(CNc2nc3c(S(=O)(=O)c4ccc(C)c(C)c4)nnn3c3ccsc23)c1"
5.42

Also check Cc1ccc(S(=O)(=O)c2nnn3c2nc(NC(C)c2ccccc2)c2sccc23)cc1 (stereo not shown)
4.95

Also check "CC(C)c1ccc(S(=O)(=O)c2nnn3c2nc(NCc2cccs2)c2sccc23)cc1"
6.90

Also check "Cc1ccc(C)c(S(=O)(=O)c2nnn3c2nc(NCc2ccco2)c2sccc23)c1"
5.57

Also check "Cc1ccc(C)c(S(=O)(=O)c2nnn3c2nc(NCc2ccc(F)cc2)c2sccc23)c1"
6.17

Also check "Cc1ccc(S(=O)(=O)c2nnn3c2nc(NC2CCCCC2)c2sccc23)cc1C"
5.09

Also check "Cc1ccc(S(=O)(=O)c2nnn3c2nc(NCc2ccc(Cl)cc2)c2sccc23)cc1C"
6.24

Also check "CCc1ccc(S(=O)(=O)c2nnn3c2nc(NC(C)C)c2sccc23)cc1"
6.02

Also check "CCc1ccc(S(=O)(=O)c2nnn3c2nc(N2CCN(C)CC2)c2sccc23)cc1"
6.23

Also check "Cc1ccc(C)c(S(=O)(=O)c2nnn3c2nc(NCCCOC(C)C)c2sccc23)c1"
5.69

Also check "CCc1ccc(S(=O)(=O)c2nnn3c2nc(NCCCOC(C)C)c2sccc23)cc1"
6.36

Also check "CCCCNc1nc2c(S(=O)(=O)c3ccc(C(C)C)cc3)nnn2c2ccsc12"
6.72

Also check "CCCCNc1nc2c(S(=O)(=O)c3cc(C)ccc3C)nnn2c2ccsc12"
6.06

Also check "Cc1ccc(S(=O)(=O)c2nnn3c2nc(NC2CCCC2)c2sccc23)cc1"
5.20

Also check "CCN(CC)c1nc2c(S(=O)(=O)c3ccc(C)c(C)c3)nnn2c2ccsc12"
5.60

Also check "CCc1ccc(S(=O)(=O)c2nnn3c2nc(NCc2ccccc2)c2sccc23)cc1"
6.18

Also check "Cc1ccc(C)c(S(=O)(=O)c2nnn3c2nc(N2CCC(C(N)=O)CC2)c2sccc23)c1"
5.48

Also check "CCCCNc1nc2c(S(=O)(=O)c3ccc(Br)cc3)nnn2c2ccsc12"
5.72

Also check "CCc1ccc(S(=O)(=O)c2nnn3c2nc(NCCCN2CCCC2=O)c2sccc23)cc1"
5.83

Also check "Cc1ccc(S(=O)(=O)c2nnn3c2nc(NCCCOC(C)C)c2sccc23)cc1C"
5.61

Also check "COCCNc1nc2c(S(=O)(=O)c3ccc(C)c(C)c3)nnn2c2ccsc12"
5.60

Also check "NC(=O)C1CCN(c2nc3c(S(=O)(=O)c4ccccc4)nnn3c3ccsc23)CC1"
5.12

Also check "CCc1ccc(S(=O)(=O)c2nnn3c2nc(NCc2ccc(Cl)cc2)c2sccc23)cc1"
6.43

Also check "COCCNc1nc2c(S(=O)(=O)c3ccc(C(C)C)cc3)nnn2c2ccsc12"
6.15

* * *

Biological target: UniProtKB Q8VHL0
Experiment: Erythrocyte lysis assay of UT-B inhibition
Type: cell-based
Parameters: Screening was performed using mouse erythrocytes, which strongly express UT-B; endogenous in cells; host or cells: erythrocytes in whole blood of wild-type CD1 mice
Measured Endpoint: IC50 (µM)
Report the figure in µM without appending any unit label.

What value of IC50 has been reported for the following compound? CCc1ccc(S(=O)(=O)c2nnn3c2nc(N2CCOCC2)c2sccc23)cc1 [Compound 2bq]
5.71

* * *

Molecular target: UT-B (Mus musculus)
Test: Erythrocyte lysis assay of UT-B inhibition
Type: cell-based
Design: Screening was performed using mouse erythrocytes, which strongly express UT-B; endogenous in cells; host or cells: erythrocytes in whole blood of wild-type CD1 mice
Settings: Table 2, synthesized inhibitors, red blood cell lysis assay (n = 3), single-site saturation model; read-out: IC50
Measured Endpoint: pIC50
For clarity, pIC50 is expressed as the negative log10 of concentration in mol/L.

Param readout = pIC50; param system = UT-B (Mus musculus); param query = O=S(=O)(c1ccc(C(F)(F)F)cc1)c1nnn2c1nc(NCc1cccs1)c1sccc12 [Compound 3c] ; response: value
6.27

Also check O=S(=O)(c1cccs1)c1nnn2c1nc(NCc1cccs1)c1sccc12 [Compound 3g]
6.71

Also check CC(C)c1ccc(S(=O)(=O)c2nnn3c2nc(NCc2ccco2)c2sccc23)cc1 [Compound 3b]
4.78

Also check COc1ccc(CNc2nc3c(S(=O)(=O)c4ccc(C(C)C)cc4)nnn3c3ccsc23)cc1 [Compound 3e]
5.28

* * *

Experiment: In vitro metabolic stability in hepatic microsomes
Assay type: in vitro ADME, rat
Settings: parent molecule after 30 min incubation with rat liver microsomes
For each of the molecules below, state its % Remaining.
Report the figure in % without appending any unit label.

What value of % Remaining has been reported for the following molecule? "O=S(=O)(c1ccc(F)cc1)c1nnn2c1nc(NCc1cccs1)c1sccc12"
27

Also check "O=S(=O)(c1ccc(Br)cc1)c1nnn2c1nc(NCc1cccs1)c1sccc12"
60

Also check "CC(C)c1ccc(S(=O)(=O)c2nnn3c2nc(NCc2cccc4ccccc24)c2sccc23)cc1"
45

Also check "COc1ccc(S(=O)(=O)c2nnn3c2nc(NCc2cccs2)c2sccc23)cc1"
6

Also check "COc1ccc(CNc2nc3c(S(=O)(=O)c4ccc(C(C)C)cc4)nnn3c3ccsc23)cc1"
7

Also check "O=S(=O)(c1ccc(OC(F)(F)F)cc1)c1nnn2c1nc(NCc1cccs1)c1sccc12"
95

Also check "O=S(=O)(c1ccc(C(F)(F)F)cc1)c1nnn2c1nc(NCc1cccs1)c1sccc12"
99
